- Assay overview: in vitro
- Assay type: cell-based, human
- Experimental conditions: human, human red blood cells, pH 7, hemolytic assay, concentration at 50% hemolysis, 1 hour at 37° C.; read-out: LD50

Smiles code | HC50 at 1 h (µg/mL)
CC(C)C[C@H](NC(=O)[C@H](C)NC(=O)[C@H](CC(C)C)NC(=O)[C@H](C)NC(=O)[C@H](CC(C)C)NC(=O)[C@H](CCCCN)NC(=O)[C@H](C)NC(=O)[C@H](CC(C)C)NC(=O)[C@H](CCCCN)NC(=O)[C@H](CCCCN)NC(=O)[C@H](C)NC(=O)[C@H](CC(C)C)NC(=O)[C@H](CCCCN)NC(=O)[C@H](C)NC(=O)[C@H](CC(C)C)NC(=O)[C@H](CCCCN)NC(=O)[C@H](CCCCN)NC(=O)[C@H](C)NC(=O)[C@@H](N)Cc1ccccc1)C(N)=O | 85
CC(C)C[C@H](NC(=O)[C@H](C)NC(=O)[C@H](CC(C)C)NC(=O)[C@H](C)NC(=O)[C@H](CC(C)C)NC(=O)[C@H](CCCCN)NC(=O)[C@H](C)NC(=O)[C@H](CC(C)C)NC(=O)[C@H](CCCCN)NC(=O)[C@H](CCCCN)NC(=O)[C@H](C)NC(=O)[C@H](CC(C)C)NC(=O)[C@H](CCCCN)NC(=O)[C@H](C)NC(=O)[C@H](CC(C)C)NC(=O)[C@H](CCCCN)NC(=O)[C@H](CCCCN)NC(=O)[C@H](C)NC(=O)[C@@H](N)C(C)C)C(N)=O | 70
CC(C)C[C@H](NC(=O)[C@H](C)NC(=O)[C@H](CC(C)C)NC(=O)[C@H](CCCCN)NC(=O)[C@H](C)NC(=O)[C@H](CC(C)C)NC(=O)[C@H](CCCCN)NC(=O)[C@H](CCCCN)NC(=O)[C@H](C)NC(=O)[C@H](CC(C)C)NC(=O)[C@H](CCCCN)NC(=O)[C@H](C)NC(=O)[C@H](CC(C)C)NC(=O)[C@H](CCCCN)NC(=O)[C@H](CCCCN)NC(=O)[C@H](C)NC(=O)[C@@H](N)Cc1ccccc1)C(N)=O | 200
CC(C)C[C@H](NC(=O)[C@H](C)NC(=O)[C@H](CC(C)C)NC(=O)[C@H](CCCCN)NC(=O)[C@H](C)NC(=O)[C@H](CC(C)C)NC(=O)[C@H](CCCCN)NC(=O)[C@H](CCCCN)NC(=O)[C@H](C)NC(=O)[C@H](CC(C)C)NC(=O)[C@H](CCCCN)NC(=O)[C@H](C)NC(=O)[C@H](CC(C)C)NC(=O)[C@H](CCCCN)NC(=O)[C@H](CCCCN)NC(=O)[C@H](C)NC(=O)[C@@H](N)Cc1ccccc1)C(=O)O | 390
